TARGET OR TEST SYSTEM: Transient receptor potential cation channel subfamily V member 4 (Mus musculus, UniProt Q9EPK8)
Sequence (Q9EPK8 whole entry): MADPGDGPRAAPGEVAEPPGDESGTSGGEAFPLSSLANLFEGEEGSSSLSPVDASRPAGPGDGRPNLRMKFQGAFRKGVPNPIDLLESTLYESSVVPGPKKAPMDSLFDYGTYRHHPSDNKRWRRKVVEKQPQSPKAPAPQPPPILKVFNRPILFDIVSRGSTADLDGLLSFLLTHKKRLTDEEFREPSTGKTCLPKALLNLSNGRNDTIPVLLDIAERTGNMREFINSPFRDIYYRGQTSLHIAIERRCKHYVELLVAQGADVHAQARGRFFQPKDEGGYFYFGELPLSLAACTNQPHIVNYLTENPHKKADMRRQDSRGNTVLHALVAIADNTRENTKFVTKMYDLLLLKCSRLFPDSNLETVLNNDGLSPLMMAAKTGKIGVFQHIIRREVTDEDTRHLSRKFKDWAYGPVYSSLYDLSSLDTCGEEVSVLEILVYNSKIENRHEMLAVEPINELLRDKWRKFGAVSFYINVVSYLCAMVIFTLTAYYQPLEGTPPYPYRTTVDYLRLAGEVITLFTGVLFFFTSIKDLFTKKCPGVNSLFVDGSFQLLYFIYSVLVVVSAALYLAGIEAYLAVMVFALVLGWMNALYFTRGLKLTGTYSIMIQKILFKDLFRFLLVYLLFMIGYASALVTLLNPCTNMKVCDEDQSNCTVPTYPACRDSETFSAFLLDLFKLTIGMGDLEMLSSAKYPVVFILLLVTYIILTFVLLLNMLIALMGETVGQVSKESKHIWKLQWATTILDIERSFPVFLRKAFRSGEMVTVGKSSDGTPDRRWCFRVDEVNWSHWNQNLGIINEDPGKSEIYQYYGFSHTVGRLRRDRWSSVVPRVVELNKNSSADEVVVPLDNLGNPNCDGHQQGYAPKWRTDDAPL
TEST: Activation of mouse wild type TRPV4 expressed in HEK293 cells assessed as increase in intracellular calcium concentration
Listing of entries alongside the reported EC50.
REPORTED ENDPOINT: EC50 (nM)

[[record]]
molecule = "CCCCCCCC(=O)O[C@@H]1[C@@H](C)[C@@]2(O)[C@@H](C=C(CO)C[C@@]3(O)C(=O)C(C)=C[C@@H]23)[C@@H]2C(C)(C)[C@]12OC(=O)CCCCCCC"
bound_operator = ">"
assay_value = 50000

[[record]]
molecule = "CCCC(=O)O[C@@H]1[C@@H](C)[C@@]2(O)[C@@H](C=C(CO)C[C@]3(O)C(=O)C(C)=C[C@@H]23)[C@@H]2C(C)(C)[C@]12OC(=O)CCC"
bound_operator = "="
assay_value = 22500

[[record]]
molecule = "CCCCCCCCCC(=O)O[C@@H]1[C@@H](C)[C@@]2(O)[C@@H](C=C(CO)C[C@@]3(O)C(=O)C(C)=C[C@@H]23)[C@@H]2C(C)(C)[C@]12OC(=O)CCCCCCCCC"
bound_operator = "="
assay_value = 370

[[record]]
molecule = "CCCCCCCCCC(=O)O[C@@H]1[C@@H](C)[C@]2(O)[C@@H]3C4C([C@H]2[C@@H]2C(C)(C)[C@]12OC(=O)CCCCCCCCC)C1(CO)C[C@H]3C(=O)C41C (stereo not given in full)"
bound_operator = "="
assay_value = 175

[[record]]
molecule = "CCCCCCCCCC(=O)O[C@@H]1[C@@H](C)[C@]2(O)[C@@H]3C=C(C)C(=O)[C@@H]3CC(CO)=C[C@H]2[C@@H]2C(C)(C)[C@]12OC(=O)CCCCCCCCC"
bound_operator = ">"
assay_value = 50000

[[record]]
molecule = "CCCCCCCCCC(=O)O[C@@]12[C@H](O)[C@@H](C)[C@@]3(O)[C@@H](C=C(CO)C[C@@]4(O)C(=O)C(C)=C[C@@H]34)[C@@H]1C2(C)C"
bound_operator = "="
assay_value = 450

[[record]]
molecule = "CCCCCC(=O)O[C@@H]1[C@@H](C)[C@@]2(O)[C@@H](C=C(CO)C[C@@]3(O)C(=O)C(C)=C[C@@H]23)[C@@H]2C(C)(C)[C@]12OC(=O)CCCCC"
bound_operator = "="
assay_value = 70

[[record]]
molecule = "CCCCCCCCC(=O)O[C@@H]1[C@@H](C)[C@@]2(O)[C@@H](C=C(CO)C[C@@]3(O)C(=O)C(C)=C[C@@H]23)[C@@H]2C(C)(C)[C@]12OC(=O)CCCCCCCC"
bound_operator = ">"
assay_value = 50000

[[record]]
molecule = "CC(=O)O[C@@H]1[C@@H](C)[C@@]2(O)[C@@H](C=C(CO)C[C@@]3(O)C(=O)C(C)=C[C@@H]23)[C@@H]2C(C)(C)[C@]12OC(C)=O"
bound_operator = ">"
assay_value = 50000

[[record]]
molecule = "CCCCCCCCCCCCCC(=O)O[C@@H]1[C@@H](C)[C@@]2(O)[C@@H](C=C(CO)C[C@@]3(O)C(=O)C(C)=C[C@@H]23)[C@@H]2C(C)(C)[C@]12OC(=O)CCCCCCCCCCCCC"
bound_operator = "="
assay_value = 2830

